- Test system: Leishmania donovani
- test.method.notes: Antimicrobial activity against wild-type Leishmania donovani AG83 promastigote assessed as inhibition of parasite growth after 72 hrs by MTS assay
- Assay type: functional, organism-based
- measurement.context: AG83, 72 h
pIC50: −log10 of the molar value.
molecules and their reported pIC50

[
  {
    "mol.smiles": "O=c1c(O)c(-c2ccc(OCCOCCOCCOCCOc3ccc(-c4oc5ccccc5c(=O)c4O)cc3)cc2)oc2ccccc12",
    "target.entity": "Leishmania donovani",
    "pIC50": "< 4.62"
  },
  {
    "mol.smiles": "O=c1cc(-c2ccc(OCCOCCOCCOCCOc3ccc(-c4cc(=O)c5c(O)cccc5o4)cc3)cc2)oc2cccc(O)c12",
    "target.entity": "Leishmania donovani",
    "pIC50": "< 4.62"
  },
  {
    "mol.smiles": "Cc1ccc2oc(-c3ccc(OCCOCCOCCOCCOc4ccc(-c5cc(=O)c6cc(C)ccc6o5)cc4)cc3)cc(=O)c2c1",
    "target.entity": "Leishmania donovani",
    "pIC50": "< 4.62"
  },
  {
    "mol.smiles": "O=C(O)CCC(=O)N(CCOCCOc1ccc(-c2cc(=O)c3ccccc3o2)cc1)CCOCCOc1ccc(-c2cc(=O)c3ccccc3o2)cc1",
    "target.entity": "Leishmania donovani",
    "pIC50": "< 4.00"
  },
  {
    "mol.smiles": "Cc1ccc2oc(-c3ccc(OCCOCCOCCOCCOCCOc4ccc(-c5cc(=O)c6cc(C)ccc6o5)cc4)cc3)cc(=O)c2c1",
    "target.entity": "Leishmania donovani",
    "pIC50": "< 4.62"
  },
  {
    "mol.smiles": "Cc1ccc2c(=O)cc(-c3ccc(OCCOCCOCCOCCOc4ccc(-c5cc(=O)c6ccc(C)cc6o5)cc4)cc3)oc2c1",
    "target.entity": "Leishmania donovani",
    "pIC50": "< 4.62"
  }
]
